Cited source: patent US12624096B2

target.entity: hT40 (Homo sapiens, UniProt P10636)
Sequence (P10636 1-441 isoform P10636-8): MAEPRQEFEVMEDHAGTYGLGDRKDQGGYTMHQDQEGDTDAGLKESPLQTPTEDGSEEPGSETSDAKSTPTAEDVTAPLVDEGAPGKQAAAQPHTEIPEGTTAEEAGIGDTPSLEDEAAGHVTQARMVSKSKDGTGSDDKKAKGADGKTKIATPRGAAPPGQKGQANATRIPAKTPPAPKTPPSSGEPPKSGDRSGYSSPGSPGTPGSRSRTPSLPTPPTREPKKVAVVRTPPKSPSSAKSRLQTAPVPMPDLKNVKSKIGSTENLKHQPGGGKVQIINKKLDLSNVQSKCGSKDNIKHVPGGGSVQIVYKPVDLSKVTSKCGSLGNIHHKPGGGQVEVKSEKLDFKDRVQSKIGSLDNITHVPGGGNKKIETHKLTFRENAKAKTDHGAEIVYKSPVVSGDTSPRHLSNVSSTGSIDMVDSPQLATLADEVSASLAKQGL
assay.info: Biacore X100 SPR, scAb captured via anti-HuCk, hT40 as analyte
Type: binding
condition: '3a' and '3b' scAbs, Table 25, hT40
Protocol: Surface plasmon resonance (SPR) is widely regarded as the gold standard for real time measurement of protein-protein interactions such as antibody binding. […] The single cycle kinetics protocol was similar and utilised the same level of scAb capture. […] Binding responses were analysed in Biacore X100 evaluation software and data fitted to a 1:1 binding model to obtain kinetic and affinity characterisation.
Here the recorded ka is given for each entry.
Provide the measurement as a number trailed by its unit.

# count of solved cases: 3
INSERT INTO results (molecule, experimental_value) VALUES
  ('3aG3: anti-tau clone, SEQ ID NO: 424 (protein, 3aG3 amino acid sequence) scFv: QVQLQESGPSLVKPSQTLSLTCTVSGFSLSSNGVGWVRQAPGKVPEWVGDISSSGKAYANPALKSRLSITRDTAKTQVFLSLSSVTTEDTAVYYCVRCRDGGVSYGYDIDYWGPGLLVTVSSEGKSSGASGESKVDDQAVLTQPPSVSGSPGQRVSITCSGSSSNIGGGNYLSWFQQVPGSAPKLLIYGATSRASGVPDRFSGSRSGNTATLTISSLQAEDEADYYCASFDTSSGGIFGAGTRLTVLG', '62940 M⁻¹ s⁻¹'),
  ('3aH6: anti-tau clone, SEQ ID NO: 423 (protein, 3aH6 amino acid sequence) scFv: QVQLQESGPSLVKPSQTLSLTCTVSGFSLSSNGVGWVRQAPGKVPEWLGDISSVGKKYANPALKSRLSFTRDTSKSQVSLSLSSVTTEDTAVYYCVKCRDGGVTYGYDIDYWGPGLLVTASSEGKSSGASGESKVDDQAVVTQPSSVSGSLGQSVSITCSGSSGNVGYGDYVSWFQQFHGSAPKLLIYGATNLASGVPARFSGSRSGNTATLTISSLHAEDEADYYCASYDSSSGGVFGSGTRLTVLG', '2.757e+06 M⁻¹ s⁻¹'),
  ('3aD3: anti-tau clone, SEQ ID NO: 422 (protein, 3aD3 amino acid sequence) scFv: QVQLQESGPSLVKPSQTLSLTCTVSGFSLTSNGVGWVRRAPGKVPEWVGDISSGGKVYGHPALKSRLSITRDTSKSQVSLSVSSVTSEDTAVYYCVRCRDGGVSYGYDSDYWGPGLLVTVSSEGKSSGASGESKVDDQAVVTQPSSVSKSLGQSVSITCSGSSSNVGYGDYVGWFQQVPGSAPKLLIYGVTERASGVPDRFSGSRSGNTATLTISSIQAEDEADYYCASYDDSSGGIFGSGTRLTVLG', '544400 M⁻¹ s⁻¹');

Moving on to the next molecule.
Entry 3bF4: anti-tau clone, SEQ ID NO: 421 (protein, 3bF4 amino acid sequence) scFv: QVQLQESGPSLVKPSQTLSLTCTVSGFSLSSNGVGWVRQAPGKVPEWLGDISSVGKKYANPALKSRLSFTRDTSKSQVSLSLSSVTTEDTAVYYCVKCRDGGVTYGYDIDYWGPGLLVTVSSEGKSSGASGESKVDDQAVLTQPSSVSKSTGQTVSITCSGSSSNVGLRNYVTWFQQVPGSAPKLLIYGATSRASGIPDRFSGSRSGNTATLIISSLQAEDEADYYCASADTNDGGVFGSGTRLTVLG has what ka? 109300 M⁻¹ s⁻¹
